Entries and their measured pIC50 follow.
- SUBJECT OF TEST: HA H1 A/California/07/09 (Influenza A virus (A/California/07/2009(H1N1)))
- TEST PROTOCOL: biochemical
- STUDY CONDITIONS: Competition binding (AlphaLISA), pIC50 H1 A/California/07/09
pIC50: −log10 of the molar value.

# COMPOUND, pIC50
records = [
    ("CC(=O)Nc1ccc2oc(-c3cccc(C(=O)N4CCN(C(c5ccccc5)c5nnc(C)o5)CC4)c3)nc2c1 (stereo not shown) [Example 51]", 7.80),
    ("Cn1ccc(C(c2ccccc2)N2CCN(C(=O)c3cccc(-c4nc5cc(C(F)(F)F)ccc5o4)c3)CC2)n1 (stereo not shown) [Example 53]", 5.30),
    ("Cc1nnc([C@@H](c2ccccc2)N2CCN(C(=O)c3cccc(-c4ccc5ccccc5n4)c3)CC2)o1 [Example 112]", 6.30),
    ("Cc1nnc([C@@H](c2ccccc2)N2CCN(C(=O)c3cccc(-c4cc5ccccc5cn4)c3)CC2)o1 [Example 95]", 6.90),
]

* * *

Entries and their measured pIC50 follow.
- SUBJECT OF TEST: HA H1 A/California/07/09 (Influenza A virus (A/California/07/2009(H1N1)), UniProt C3W5X2)
- TEST PROTOCOL: biochemical
- STUDY CONDITIONS: Competition binding (AlphaLISA), pIC50 H1 A/California/07/09
pIC50: −log10 of the molar value.
QUANTITY: pIC50

# COMPOUND, QUANTITATIVE READOUT
records = [
    ("COC(=O)C(c1ccccc1)N1C[C@H]2CC[C@@H](C1)N2C(=O)c1cccc(-c2nc3ccc(OC)cc3s2)c1 (stereo partly drawn)", 6.70),
    ("COC(=O)[C@H](c1ccccc1)N1CCN(C(=O)c2cccc(-c3nc4cc(C(F)(F)F)ccc4o3)c2)[C@@H](C)C1", 6.90),
    ("COC(=O)C(C)(c1ccccc1)N1CCN(C(=O)c2cccc(-c3nc4ccc(OC)cc4s3)c2)CC1 (stereo not drawn)", 7.10),
    ("COC(=O)C(c1ccccc1)N1CCN(C(=O)c2cccc(-c3nc4cc(N(C)C)ccc4o3)c2)CC1 (stereo not drawn)", 8.10),
    ("COc1ccc2nc(-c3cccc(C(=O)N4CCN(C(C(C)=O)c5ccccc5)CC4)c3)sc2c1 (stereo not drawn) [Example 106]", 6.40),
    ("O=C(c1cccc(-c2cc3ccccc3o2)c1)N1CCN(Cc2ccccc2)CC1", 6.20),
    ("O=C(c1cccc(-c2nc3cc(C(F)(F)F)ccc3o2)c1)N1CCN(C(c2ccccc2)c2nnc(C3(O)CCC3)o2)CC1 (stereo not drawn)", 7.30),
    ("COC(=O)C(c1ccccc1)N1CCN(C(=O)c2cc(-c3nc4cc(C(F)(F)F)ccc4o3)ccn2)CC1 (stereo not drawn)", 7.80),
    ("Cc1nnc(C(c2ccccc2)N2CCN(C(=O)c3cccc(-c4nc5cc(C(F)(F)F)ccc5o4)c3)CC2)o1 (stereo not drawn)", 7.10),
]

* * *

- TEST PROTOCOL: in vitro
- STUDY CONDITIONS: dog, Cytotoxicity (pCC50) MDCK

# COMPOUND, BOUND SIGN, CC50 (µM)
measured = [
    ("COC(=O)C(c1ccccc1)N1CCN(C(=O)c2cccc(-c3nc4ccc(OC)cc4[nH]3)c2)CC1 (stereo not shown)", "=", 7.94),
    ("COC(=O)C(c1ccccc1)C1CCN(C(=O)c2cccc(-c3nc4ccc(OC)cc4s3)c2)CC1 (stereo not shown)", ">", 50.1),
    ("COC(=O)C(c1ccccc1)N1CCN(C(=O)C2CCCN(c3nc4ccc(OC)cc4s3)C2)CC1 (stereo not shown)", "=", 3.98),
    ("Cc1nnc(C(c2ccccc2)N2CCN(C(=O)c3cccc(-c4nc5cc(C(F)(F)F)ccc5o4)c3)CC2)o1 (stereo not shown)", "=", 31.6),
    ("Cc1nnc(C(c2ccccc2)N2CCN(C(=O)c3cc(-c4nc5cc(C(F)(F)F)ccc5o4)ccn3)CC2)o1 (stereo not shown)", "=", 12.6),
    ("COc1ccc2nc(-c3cccc(C(=O)N4CCN(C(C(=O)NCCN)c5ccccc5)CC4)c3)sc2c1 (stereo not shown)", "=", 15.8),
    ("COC(=O)C(c1ccccc1)N1CCN(C(=O)c2cccc(-c3nc4cc(O)ccc4o3)c2)CC1 (stereo not shown)", "=", 25.1),
]
